# test.method.notes: AUC (0 to t) in BALB/c mouse plasma at 10 mg/kg, sc by LC-MS/MS analysis
# Format: ADME, organism-based
A collection of molecules and their measured AUC(0-t)
Answer in ng·h/mL, number only, no unit symbol.

[[record]]
molecule = "COc1ccc(/C=N/OCC(=O)N2CC(C)OC(C)C2)cc1OC1CCCC1 (configuration not stated)"
unit_annotation = "ng·h/mL"
meas_value = 1890


Next molecule, AUC(0-t) to be filled in.
Fill in AUC(0-t) for record CC1CN(C(=O)CO/N=C/c2ccc(OC(F)F)c(OC3CCCC3)c2)CC(C)O1 (configuration not stated)
1220
